Attribution: paper PMC6862289

assay-text: Toxicokinetics of ZEN-14G in rats after oral and intravenous administration (plasma LC-MS/MS, non-compartmental analysis)
Assay type: in vivo, Wistar rats
assay-conditions: both sexes, Wistar, rat, in vivo, po, 0.75 mg/kg body weight, read-out: AUC0-infinity
parameter: AUC(0-inf)
Don't forget the unit after the number, please.

In plain terms, CC1CCCC(=O)CCC/C=C/c2cc(OC3OC(CO)C(O)C(O)C3O)cc(O)c2C(=O)O1 (stereo not shown) [ZEN-14G, Zearalenone-14-glucoside] has a documented AUC(0-inf) of 0.16 ng·h/mL

* * *

assay-text: Toxicokinetics of ZEN-14G in rats after oral and intravenous administration (plasma LC-MS/MS, non-compartmental analysis)
Format: in vivo, Wistar rats
assay-conditions: both sexes, Wistar, rat, in vivo, 0.75 mg/kg, AUC oral / AUC intravenous × 100%, 0.75 mg/kg body weight, read-out: F (absolute oral bioavailability)
parameter: bioavailability

In plain terms, CC1CCCC(=O)CCC/C=C/c2cc(OC3OC(CO)C(O)C(O)C3O)cc(O)c2C(=O)O1 (stereo not shown) [ZEN-14G, Zearalenone-14-glucoside] has a documented bioavailability of ~9%
